molecular target: Histone deacetylase; assay: Inhibition of HDAC in human CAL-27 cells using Boc-Lys (acetyl)-AMC as substrate preincubated for 18 hrs followed by susbtrate addition and measured after 3 hrs by fluorescence microplate reader assay; assay type: cell-based
Endpoint Label: IC50 (µM)
Enter your answer as a number in µM; do not include the unit.

Below, 5 compounds whose answers are already recorded.
{"Compound String": "O=C(CCCCCONC(=O)c1cccc2cc[nH]c12)NO", "Unit": "µM", "IC50": 0.46}
{"Compound String": "O=C(CCCCCONC(=O)c1cc2ccccc2[nH]1)NO", "Unit": "µM", "IC50": 0.12}
{"Compound String": "O=C(CCCCCONC(=O)c1cnc2ccccc2n1)NO", "Unit": "µM", "IC50": 0.49}
{"Compound String": "O=C(CCCCCONC(=O)Cc1ccc2ccccc2c1)NO", "Unit": "µM", "IC50": 1.72}
{"Compound String": "O=C(CCCCCONC(=O)c1ccc2[nH]ccc2c1)NO", "Unit": "µM", "IC50": 0.45}

Request: Missing value: IC50, Histone deacetylase, entry `O=C(CCCCCONC(=O)c1cc2ccccc2s1)NO` . Fill in?
Response: 2.25
